Entry source: ChEMBL document CHEMBL1137480

system: Salmonella; assay: Antibacterial activity against […] 48107 after 24 hrs by agar dilution method; type: functional

- compound: "CC1COc2c(CNC3CC3)c(F)cc3c(=O)c(C(=O)O)cn1c23 (centres undefined)"
  target_system: "Salmonella"
  operator_symbol: "≤"
  MIC, µg/mL: 0.049
- compound: "Cc1cc(C)nc(NCc2c(F)cc3c(=O)c(C(=O)O)cn4c3c2OC[C@@H]4C)c1"
  target_system: "Salmonella"
  operator_symbol: "="
  MIC, µg/mL: 0.78
- compound: "CCNCc1c(F)cc2c(=O)c(C(=O)O)cn(C3CC3)c2c1F"
  target_system: "Salmonella"
  operator_symbol: "="
  MIC, µg/mL: 0.195
- compound: "CC1COc2c(Cn3ccnc3)c(F)cc3c(=O)c(C(=O)O)cn1c23 (centres undefined)"
  target_system: "Salmonella"
  operator_symbol: "="
  MIC, µg/mL: 0.39

----------
tested on: Staphylococcus aureus; experiment: Antibacterial activity against Staphylococcus aureus 26003 after 24 hrs by agar dilution method; format: functional
Listed next: entries and their corresponding MIC.

- molecule: "C[C@H]1COc2c(CN3CCNCC3)c(F)cc3c(=O)c(C(=O)O)cn1c23"
  target_system: "Staphylococcus aureus"
  unit_abbreviation: "µg/mL"
  operator_symbol: ">"
  MIC: 6.25
- molecule: "CN[C@H](CC(C)C)C(=O)N[C@H]1C(=O)N[C@@H](CC(N)=O)C(=O)N[C@H]2C(=O)N[C@H]3C(=O)N[C@H](C(=O)N[C@H](C(=O)O)c4cc(O)cc(O)c4-c4cc3ccc4O)[C@H](O)c3ccc(c(Cl)c3)Oc3cc2cc(c3O[C@@H]2O[C@H](CO)[C@@H](O)[C@H](O)[C@H]2O[C@H]2C[C@](C)(N)[C@H](O)[C@H](C)O2)Oc2ccc(cc2Cl)[C@H]1O"
  target_system: "Staphylococcus aureus"
  unit_abbreviation: "µg/mL"
  operator_symbol: "="
  MIC: 0.39
- molecule: "CC1COc2c(CNC3CC3)c(F)cc3c(=O)c(C(=O)O)cn1c23 (configuration not stated)"
  target_system: "Staphylococcus aureus"
  unit_abbreviation: "µg/mL"
  operator_symbol: "="
  MIC: 3.13
- molecule: "C[C@H]1COc2c(CNc3ccccc3)c(F)cc3c(=O)c(C(=O)O)cn1c23"
  target_system: "Staphylococcus aureus"
  unit_abbreviation: "µg/mL"
  operator_symbol: "="
  MIC: 1.56
- molecule: "CC(C)NCc1c(F)cc2c(=O)c(C(=O)O)cn3c2c1OC[C@@H]3C"
  target_system: "Staphylococcus aureus"
  unit_abbreviation: "µg/mL"
  operator_symbol: ">"
  MIC: 6.25
- molecule: "C[C@H]1COc2c(CNC3CC3)c(F)cc3c(=O)c(C(=O)O)cn1c23"
  target_system: "Staphylococcus aureus"
  unit_abbreviation: "µg/mL"
  operator_symbol: "="
  MIC: 3.13
- molecule: "CCN(Cc1c(F)cc2c(=O)c(C(=O)O)cn(C3CC3)c2c1F)c1ccccc1"
  target_system: "Staphylococcus aureus"
  unit_abbreviation: "µg/mL"
  operator_symbol: "="
  MIC: 3.13

----------
system: Streptococcus pneumoniae; assay: Antibacterial activity against Streptococcus pneumoniae 31002 after 24 hrs by agar dilution method; type: functional
Listed next: entries and their corresponding MIC.

- molecule: "Cc1cc(C)nc(NCc2c(F)cc3c(=O)c(C(=O)O)cn4c3c2OC[C@@H]4C)c1"
  unit_abbreviation: "µg/mL"
  operator_symbol: "="
  MIC: 0.195
- molecule: "O=C(O)c1cn(C2CC2)c2c(F)c(CNc3ccc(F)cc3)c(F)cc2c1=O"
  unit_abbreviation: "µg/mL"
  operator_symbol: "="
  MIC: 0.049
- molecule: "C[C@H]1COc2c(CNc3ccc(Cl)cc3)c(F)cc3c(=O)c(C(=O)O)cn1c23"
  unit_abbreviation: "µg/mL"
  operator_symbol: "≤"
  MIC: 0.049
- molecule: "O=C(O)c1cn(C2CC2)c2c(F)c(CN3CCNCC3)c(F)cc2c1=O"
  unit_abbreviation: "µg/mL"
  operator_symbol: "="
  MIC: 6.25
- molecule: "Cc1ccc(NCc2c(F)cc3c(=O)c(C(=O)O)cn4c3c2OC[C@@H]4C)cc1C"
  unit_abbreviation: "µg/mL"
  operator_symbol: "="
  MIC: 0.195
- molecule: "O=C(O)c1cn(C2CC2)c2c(F)c(CNC3CC3)c(F)cc2c1=O"
  unit_abbreviation: "µg/mL"
  operator_symbol: "="
  MIC: 0.195
- molecule: "C[C@H]1COc2c(CNc3ccc(F)cc3)c(F)cc3c(=O)c(C(=O)O)cn1c23"
  unit_abbreviation: "µg/mL"
  operator_symbol: "="
  MIC: 0.049
- molecule: "CC1COc2c(CN3CCCCC3)c(F)cc3c(=O)c(C(=O)O)cn1c23 (stereo not given)"
  unit_abbreviation: "µg/mL"
  operator_symbol: "="
  MIC: 3.13
- molecule: "O=C(O)c1cn(C2CC2)c2c(F)c(CNc3ccc(Cl)cc3)c(F)cc2c1=O"
  unit_abbreviation: "µg/mL"
  operator_symbol: "≤"
  MIC: 0.049
- molecule: "C[C@H]1COc2c(CNc3cccc(Cl)c3)c(F)cc3c(=O)c(C(=O)O)cn1c23"
  unit_abbreviation: "µg/mL"
  operator_symbol: "="
  MIC: 0.195

----------
system: Salmonella; experiment: Antibacterial activity against […] 48107 after 24 hrs by agar dilution method; assay type: functional
Listed next: entries and their corresponding log10(MIC).
test_readout: log10(MIC) (log10 of the value in µg/mL)

- molecule: "CCCNCc1c(F)cc2c(=O)c(C(=O)O)cn(C3CC3)c2c1F"
  target_system: "Salmonella"
  log10(MIC): -1.01
- molecule: "C[C@H]1COc2c(CN(C)c3ccc(F)cc3)c(F)cc3c(=O)c(C(=O)O)cn1c23"
  target_system: "Salmonella"
  log10(MIC): 0.19
- molecule: "O=C(O)c1cn(C2CC2)c2c(F)c(Cn3ccnc3)c(F)cc2c1=O"
  target_system: "Salmonella"
  log10(MIC): -0.71
- molecule: "Cc1ccc(NCc2c(F)cc3c(=O)c(C(=O)O)cn(C4CC4)c3c2F)cc1"
  target_system: "Salmonella"
  log10(MIC): -0.11
- molecule: "C[C@H]1COc2c(CNc3ccc(F)c(Cl)c3)c(F)cc3c(=O)c(C(=O)O)cn1c23"
  target_system: "Salmonella"
  log10(MIC): -0.41
- molecule: "O=C(O)c1cn(C2CC2)c2c(F)c(CN3CCNCC3)c(F)cc2c1=O"
  target_system: "Salmonella"
  log10(MIC): -0.71
- molecule: "CC1COc2c(CNc3ccc(Cl)cc3)c(F)cc3c(=O)c(C(=O)O)cn1c23 (stereo not given)"
  target_system: "Salmonella"
  log10(MIC): 0.19
- molecule: "C[C@H]1COc2c(CNc3cccc(Cl)c3)c(F)cc3c(=O)c(C(=O)O)cn1c23"
  target_system: "Salmonella"
  log10(MIC): 0.80
- molecule: "C[C@H]1COc2c(CN3CCCCC3)c(F)cc3c(=O)c(C(=O)O)cn1c23"
  target_system: "Salmonella"
  log10(MIC): -0.41
- molecule: "C[C@H]1COc2c(CN3CCCC3)c(F)cc3c(=O)c(C(=O)O)cn1c23"
  target_system: "Salmonella"
  log10(MIC): -1.01

----------
Listed next: entries and their corresponding MIC.
tested on: Salmonella; test: Antibacterial activity against […] 48107 after 24 hrs by agar dilution method; type: functional

- compound: "CCNCc1c(F)cc2c(=O)c(C(=O)O)cn3c2c1OC[C@@H]3C"
  MIC: "0.195 µg/mL"
- compound: "C[C@H]1COc2c(N3CCN(C)CC3)c(F)cc3c(=O)c(C(=O)O)cn1c23.C[C@H]1COc2c(N3CCN(C)CC3)c(F)cc3c(=O)c(C(=O)O)cn1c23.O [LEVOFLOXACIN]"
  MIC: "0.098 µg/mL"
- compound: "C[C@H]1COc2c(C3(N)CC3)c(F)cc3c(=O)c(C(=O)O)cn1c23 [PAZUFLOXACIN]"
  MIC: "0.049 µg/mL"
- compound: "C[C@H]1COc2c(CNc3ccc(Cl)cc3)c(F)cc3c(=O)c(C(=O)O)cn1c23"
  MIC: "0.098 µg/mL"

----------
test system: Streptococcus pneumoniae; assay: Antibacterial activity against Streptococcus pneumoniae 31002 after 24 hrs by agar dilution method; type: functional

- compound: "O=C(O)c1cn(C2CC2)c2c(F)c(CNc3cccc(Cl)c3)c(F)cc2c1=O"
  target_system: "Streptococcus pneumoniae"
  operator_symbol: "≤"
  MIC (µg/mL): 0.049
- compound: "CCNCc1c(F)cc2c(=O)c(C(=O)O)cn3c2c1OC[C@@H]3C"
  target_system: "Streptococcus pneumoniae"
  operator_symbol: "="
  MIC (µg/mL): 1.56
- compound: "CC(C)NCc1c(F)cc2c(=O)c(C(=O)O)cn3c2c1OC[C@@H]3C"
  target_system: "Streptococcus pneumoniae"
  operator_symbol: "="
  MIC (µg/mL): 3.13
- compound: "Cc1cc(C)nc(NCc2c(F)cc3c(=O)c(C(=O)O)cn(C4CC4)c3c2F)c1"
  target_system: "Streptococcus pneumoniae"
  operator_symbol: "="
  MIC (µg/mL): 0.098
- compound: "CCN(Cc1c(F)cc2c(=O)c(C(=O)O)cn(C3CC3)c2c1F)c1ccccc1"
  target_system: "Streptococcus pneumoniae"
  operator_symbol: "="
  MIC (µg/mL): 3.13
- compound: "C[C@H]1COc2c(CNc3ccccc3)c(F)cc3c(=O)c(C(=O)O)cn1c23"
  target_system: "Streptococcus pneumoniae"
  operator_symbol: "="
  MIC (µg/mL): 0.098
- compound: "CN[C@H](CC(C)C)C(=O)N[C@H]1C(=O)N[C@@H](CC(N)=O)C(=O)N[C@H]2C(=O)N[C@H]3C(=O)N[C@H](C(=O)N[C@H](C(=O)O)c4cc(O)cc(O)c4-c4cc3ccc4O)[C@H](O)c3ccc(c(Cl)c3)Oc3cc2cc(c3O[C@@H]2O[C@H](CO)[C@@H](O)[C@H](O)[C@H]2O[C@H]2C[C@](C)(N)[C@H](O)[C@H](C)O2)Oc2ccc(cc2Cl)[C@H]1O [VANCOMYCIN]"
  target_system: "Streptococcus pneumoniae"
  operator_symbol: "="
  MIC (µg/mL): 0.098
- compound: "CCCNCc1c(F)cc2c(=O)c(C(=O)O)cn3c2c1OC[C@@H]3C"
  target_system: "Streptococcus pneumoniae"
  operator_symbol: "="
  MIC (µg/mL): 3.13
- compound: "CC(C)CNCc1c(F)cc2c(=O)c(C(=O)O)cn(C3CC3)c2c1F"
  target_system: "Streptococcus pneumoniae"
  operator_symbol: "="
  MIC (µg/mL): 1.56
- compound: "C[C@H]1COc2c(CN(C)c3ccc(F)cc3)c(F)cc3c(=O)c(C(=O)O)cn1c23"
  target_system: "Streptococcus pneumoniae"
  operator_symbol: "="
  MIC (µg/mL): 0.39
- compound: "C[C@H]1COc2c(C3(N)CC3)c(F)cc3c(=O)c(C(=O)O)cn1c23 [PAZUFLOXACIN]"
  target_system: "Streptococcus pneumoniae"
  operator_symbol: "="
  MIC (µg/mL): 0.049
- compound: "CCNCc1c(F)cc2c(=O)c(C(=O)O)cn(CC)c2c1F"
  target_system: "Streptococcus pneumoniae"
  operator_symbol: "="
  MIC (µg/mL): 3.13
- compound: "CC1COc2c(Cn3ccnc3)c(F)cc3c(=O)c(C(=O)O)cn1c23 (stereo unspecified)"
  target_system: "Streptococcus pneumoniae"
  operator_symbol: "="
  MIC (µg/mL): 0.78
- compound: "C[C@H]1COc2c(CNc3ccc(F)c(Cl)c3)c(F)cc3c(=O)c(C(=O)O)cn1c23"
  target_system: "Streptococcus pneumoniae"
  operator_symbol: "≤"
  MIC (µg/mL): 0.049
- compound: "C[C@H]1COc2c(N3CCN(C)CC3)c(F)cc3c(=O)c(C(=O)O)cn1c23.C[C@H]1COc2c(N3CCN(C)CC3)c(F)cc3c(=O)c(C(=O)O)cn1c23.O [LEVOFLOXACIN]"
  target_system: "Streptococcus pneumoniae"
  operator_symbol: "="
  MIC (µg/mL): 0.195
- compound: "CC1COc2c(CNc3ccc(Cl)cc3)c(F)cc3c(=O)c(C(=O)O)cn1c23 (stereo unspecified)"
  target_system: "Streptococcus pneumoniae"
  operator_symbol: "≤"
  MIC (µg/mL): 0.049
- compound: "O=C(O)c1cn(C2CC2)c2c(F)c(CNc3ccccc3)c(F)cc2c1=O"
  target_system: "Streptococcus pneumoniae"
  operator_symbol: "="
  MIC (µg/mL): 0.049
- compound: "CCCNCc1c(F)cc2c(=O)c(C(=O)O)cn(C3CC3)c2c1F"
  target_system: "Streptococcus pneumoniae"
  operator_symbol: "="
  MIC (µg/mL): 3.13
- compound: "Cc1ccc(NCc2c(F)cc3c(=O)c(C(=O)O)cn(C4CC4)c3c2F)cc1"
  target_system: "Streptococcus pneumoniae"
  operator_symbol: "="
  MIC (µg/mL): 0.049
- compound: "Cc1ccc(NCc2c(F)cc3c(=O)c(C(=O)O)cn(C4CC4)c3c2F)cc1C"
  target_system: "Streptococcus pneumoniae"
  operator_symbol: "="
  MIC (µg/mL): 0.098
- compound: "CCn1cc(C(=O)O)c(=O)c2cc(F)c(CNC)c(F)c21"
  target_system: "Streptococcus pneumoniae"
  operator_symbol: "="
  MIC (µg/mL): 3.13
- compound: "CC1COc2c(CNC3CC3)c(F)cc3c(=O)c(C(=O)O)cn1c23 (stereo unspecified)"
  target_system: "Streptococcus pneumoniae"
  operator_symbol: "="
  MIC (µg/mL): 0.39
- compound: "CCCCNCc1c(F)cc2c(=O)c(C(=O)O)cn(C3CC3)c2c1F"
  target_system: "Streptococcus pneumoniae"
  operator_symbol: "="
  MIC (µg/mL): 3.13
- compound: "C[C@H]1COc2c(CN3CCCCC3)c(F)cc3c(=O)c(C(=O)O)cn1c23"
  target_system: "Streptococcus pneumoniae"
  operator_symbol: "="
  MIC (µg/mL): 1.56
- compound: "C[C@H]1COc2c(CN3CCNCC3)c(F)cc3c(=O)c(C(=O)O)cn1c23"
  target_system: "Streptococcus pneumoniae"
  operator_symbol: ">"
  MIC (µg/mL): 6.25
- compound: "CCNCc1c(F)cc2c(=O)c(C(=O)O)cn(C3CC3)c2c1F"
  target_system: "Streptococcus pneumoniae"
  operator_symbol: "="
  MIC (µg/mL): 0.78
